Molecular target: LATS2 (Homo sapiens, UniProt Q9NRM7)
Sequence (Q9NRM7 1-1088): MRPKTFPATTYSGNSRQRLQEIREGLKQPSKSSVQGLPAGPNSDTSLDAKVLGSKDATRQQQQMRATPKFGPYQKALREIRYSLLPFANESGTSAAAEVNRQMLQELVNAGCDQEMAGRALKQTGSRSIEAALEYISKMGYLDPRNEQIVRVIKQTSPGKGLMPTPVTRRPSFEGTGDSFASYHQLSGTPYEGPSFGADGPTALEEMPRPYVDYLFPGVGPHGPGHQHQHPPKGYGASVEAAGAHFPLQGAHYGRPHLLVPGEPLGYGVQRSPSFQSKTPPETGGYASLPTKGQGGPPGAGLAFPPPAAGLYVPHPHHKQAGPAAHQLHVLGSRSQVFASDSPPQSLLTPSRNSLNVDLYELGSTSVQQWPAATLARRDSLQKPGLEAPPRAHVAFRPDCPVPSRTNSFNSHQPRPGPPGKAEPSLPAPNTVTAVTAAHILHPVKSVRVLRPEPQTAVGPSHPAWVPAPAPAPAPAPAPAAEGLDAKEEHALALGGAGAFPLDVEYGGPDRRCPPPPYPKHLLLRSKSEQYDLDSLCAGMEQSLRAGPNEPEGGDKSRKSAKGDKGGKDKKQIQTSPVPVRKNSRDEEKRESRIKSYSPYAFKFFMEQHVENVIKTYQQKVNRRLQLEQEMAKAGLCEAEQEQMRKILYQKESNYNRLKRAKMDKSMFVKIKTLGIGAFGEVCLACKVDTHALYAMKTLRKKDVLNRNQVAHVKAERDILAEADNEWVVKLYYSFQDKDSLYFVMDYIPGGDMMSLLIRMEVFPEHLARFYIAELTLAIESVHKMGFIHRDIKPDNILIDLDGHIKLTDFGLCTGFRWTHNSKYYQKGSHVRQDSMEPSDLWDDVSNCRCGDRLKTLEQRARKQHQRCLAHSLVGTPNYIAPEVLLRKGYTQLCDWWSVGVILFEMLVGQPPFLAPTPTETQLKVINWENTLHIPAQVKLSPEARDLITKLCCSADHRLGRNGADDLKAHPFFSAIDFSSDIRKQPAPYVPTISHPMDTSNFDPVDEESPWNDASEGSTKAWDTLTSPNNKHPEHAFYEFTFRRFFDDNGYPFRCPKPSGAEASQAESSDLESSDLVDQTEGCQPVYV
Assay: RBC HotSpot kinase assay (33P-ATP, P81 filter-binding), LATS2
Assay type: biochemical
Details: Table 28, biochemical kinase assay; read-out: LATS2 IC50
pIC50: −log10 of the molar value.
Measure: pIC50

- Cc1cc(-c2ccnc3[nH]cc(F)c23)ccc1[C@@]1(O)[C@H](C)CNC[C@@H]1C: 8.18
- O[C@]1(c2ccc(-c3ccnc4[nH]cc(F)c34)cc2Cl)[C@@H]2CC[C@H]1CNC2: 6.79
- Cc1cc(-c2ccnc3[nH]cc(F)c23)cc(F)c1[C@@]1(O)[C@H](C)CN(C(C)C)C[C@@H]1C: 8.43
- OC1(c2ccc(-c3ccnc4[nH]cc(F)c34)cc2)C[C@H]2CC[C@@H](C1)N2 (some centres unmarked): 7.72
- Cc1cc(-c2ccnc3[nH]cc(F)c23)cc(F)c1C1(O)[C@H](C)CN(C(=O)C2CC(F)(F)C2)C[C@@H]1C (some centres unmarked): 7.49

I = NCc1ccc(-c2ccnc3[nH]cc(-c4ccc(F)cc4)c23)cc1
II = C[C@@H]1CN(C)C[C@H](C)[C@@]1(O)c1c(F)cc(-c2ccnc3[nH]cc(F)c23)cc1F
III = Cc1cc(-c2ccnc3[nH]cc(F)c23)cc(F)c1[C@@]1(O)[C@H](C)CN(C(=O)C2(N)CC(F)(F)C2)C[C@@H]1C
IV = O=C(C1CC1)N1CCC(c2ccc(-c3ccnc4[nH]cc(F)c34)cc2Cl)CC1
Let's sort these by pIC50, smallest first. Go ahead? Sort the labels as requested; that list is your answer.
IV, I, II, III
(IV: 6.35, I: 7.62, II: 8.07, III: 8.37)

1 = C[C@@H]1CN(C(=O)[C@@H](C)N)C[C@H](C)C1(O)c1c(F)cc(-c2ccnc3[nH]cc(F)c23)cc1F (some centres unmarked)
2 = CC1CC(O)(c2ccc(-c3ccnc4[nH]cc(Br)c34)cc2Cl)CC(C)N1 (centres unmarked)
3 = Fc1cnc2[nH]ccc2c1-c1ccc(C2CCNCC2)cc1
4 = CCN(CC)c1cc(-c2ccnc3[nH]ccc23)ccc1CNC(C)=O
5 = CC(C)(C)Nc1cc(-c2ccnc3[nH]ccc23)ccc1C1CCNCC1
List from greatest to least pIC50. Sort the labels as requested; that list is your answer.
1, 2, 3, 5, 4

1 = Cc1cc(-c2ccnc3[nH]cc(F)c23)ccc1[C@@]1(O)[C@H](C)CN(C2COC2)C[C@@H]1C
2 = NCc1ccc(-c2ccnc3[nH]cc(-c4cccc(Cl)c4)c23)cc1
Given the listed items, does 1 or 2 have the lesser reported pIC50? Answer format: the label of the selected item.
2
(2: 7.85, 1: 8.24)
